Each entry below carries its recorded residual hCCL1 (100 nM) Gi2 response, protocol #3, mAb 0.5 µg/mL.
- assayed-system: human CCR8 (human, UniProt P51685 1-355)
- assay-procedure: cell-based or functional assay
readout-type: residual hCCL1 (100 nM) Gi2 response, protocol #3, mAb 0.5 µg/mL

1) anti-CCR8 mAb 1-1 (antibody, V domains shown, Murine hybridoma mAb) VH: EVQLLESGGGLVQPKGSLKLSCAASGFTFNPYAMNWVRQAPGRGLEWVARIRSKSNNYATYYADSVKDRFTISRDDSQDMLYLQMNNLKTEDTAMYYCVRGREAYYRYDGDYYAMDYWGQGTSVTVSS VL: DIVMTQAAPSVPVTPGESVSISCRSSKSLLHSNGNTYLYWFLQRPGQSPQLLIYRMSNLASGVPDRFSGSGSGTAFTLRISRVEAEDVGVYYCMQHLEYPFTFGSGTKLEIK = 57%
2) anti-CCR8 mAb 1-3 (antibody, V domains shown, Murine hybridoma mAb) VH: KVQLQQSGPELVKPGASVKISCKTSGYTFTEYTIHWVQQIHGKSPEWIGGINPNGDTRYDQKFKGKATLTIDKSSSTAYMELRSLTSEDSAVYYCARVARFYGISPYAMDYWGQGTSVTVSS VL: DVVMTQTPLSLPVSLGDQASISCRCTQSLLHSNGDTYLHWYLQKPGQSPNLLIYKVSNRFSGVPDRFSGSGSGTDFTLKINRVEAEDLGVYFCSQSTHVPYTFGGGTNLEIK = 81%
